target: UniProt:P29597; test: pSTAT4 Cell Assay (MSD, NK92 cells); format: cell-based
pIC50: −log10 of the molar value.
quantity: pIC50

* CC(=O)Nc1cc(Nc2ccnc(C(C)(F)F)n2)c(-c2ccc(N3CCCC3)nn2)cn1 [Example 845] | ≥ 8.00
* COCc1cnc(-c2cnc(NC(C)=O)cc2Nc2ccnc(C(C)(F)F)n2)s1 [Example 781] | ≥ 8.00
* CC(=O)Nc1cc(Nc2ccnc(C(C)(F)F)n2)c(-c2cncc(C#N)n2)cn1 [Example 766] | 6.00 to 7.00

Okay, next one:
Lookup: Retrieve pIC50 on UniProt:P29597; query CCc1cc(Nc2cc(NC(C)=O)ncc2-c2cnc(CN3C[C@@H]4C[C@H]3CO4)cn2)nc(C(C)(F)F)n1 [Example 894]
Found: ≥ 8.00

* * *

molecular target: Tyk2 (Homo sapiens (Human)); experiment: pSTAT4 Cell Assay (MSD, NK92 cells); type: cell-based; details: MSD
Sequence (P29597 whole entry): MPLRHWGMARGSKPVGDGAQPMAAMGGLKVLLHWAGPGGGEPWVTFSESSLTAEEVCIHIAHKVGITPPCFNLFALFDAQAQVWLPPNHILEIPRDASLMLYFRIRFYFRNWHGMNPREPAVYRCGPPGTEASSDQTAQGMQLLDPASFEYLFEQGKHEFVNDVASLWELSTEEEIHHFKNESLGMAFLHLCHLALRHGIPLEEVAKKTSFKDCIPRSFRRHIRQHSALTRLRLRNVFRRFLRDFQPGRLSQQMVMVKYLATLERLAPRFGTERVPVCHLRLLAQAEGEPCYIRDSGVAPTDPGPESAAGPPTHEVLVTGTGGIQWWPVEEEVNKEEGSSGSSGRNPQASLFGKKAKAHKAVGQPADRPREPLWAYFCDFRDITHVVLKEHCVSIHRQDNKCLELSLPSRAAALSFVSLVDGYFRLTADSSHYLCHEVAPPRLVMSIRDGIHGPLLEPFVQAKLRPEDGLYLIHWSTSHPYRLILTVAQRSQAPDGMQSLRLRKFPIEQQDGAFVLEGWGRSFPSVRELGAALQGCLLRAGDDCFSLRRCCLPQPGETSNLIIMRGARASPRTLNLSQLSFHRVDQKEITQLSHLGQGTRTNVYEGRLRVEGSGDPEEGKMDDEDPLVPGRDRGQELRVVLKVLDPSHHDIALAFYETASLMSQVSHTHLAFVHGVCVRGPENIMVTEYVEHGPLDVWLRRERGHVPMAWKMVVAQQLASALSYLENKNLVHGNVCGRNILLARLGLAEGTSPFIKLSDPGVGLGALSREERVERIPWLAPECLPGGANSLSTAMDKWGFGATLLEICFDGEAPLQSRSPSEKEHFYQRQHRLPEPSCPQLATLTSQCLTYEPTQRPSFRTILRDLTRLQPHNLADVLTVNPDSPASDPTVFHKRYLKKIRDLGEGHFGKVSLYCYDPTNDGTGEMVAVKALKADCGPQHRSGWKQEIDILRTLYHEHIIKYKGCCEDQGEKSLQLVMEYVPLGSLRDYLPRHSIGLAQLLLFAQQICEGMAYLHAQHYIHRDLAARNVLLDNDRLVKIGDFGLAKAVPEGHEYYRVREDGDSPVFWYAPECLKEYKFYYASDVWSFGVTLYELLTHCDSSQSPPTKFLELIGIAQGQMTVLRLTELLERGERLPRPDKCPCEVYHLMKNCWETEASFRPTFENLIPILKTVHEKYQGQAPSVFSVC
Measured IC50 accompanies every entry in the list below.

As a guide, the following entries are already answered.
• CC(=O)Nc1cc(Nc2cc(C)nc(C(C)(F)F)n2)c(OCC2CC3(CCC3)CO2)cn1 (stereo not shown) = ≤ 10 nM
• COC(C)CCOc1cnc(NC(C)=O)cc1Nc1cc(C)nc(C(C)(F)F)n1 (stereo not shown) = 10 to 100 nM
• CC(=O)Nc1cc(Nc2cc(C)nc(C(C)(F)F)n2)c(-c2cncc(C3CC3)n2)cn1 = 10 to 100 nM
• CC(=O)Nc1cc(Nc2cc(C)nc(C(C)(C)F)n2)c(-c2ccn3ncnc3n2)cn1 = ≤ 10 nM
• CC(=O)Nc1cc(Nc2cc(C)nc(C(C)(F)F)n2)c(-c2nccc(C)n2)cn1 = 10 to 100 nM
• CCC(COc1cnc(NC(C)=O)cc1Nc1cc(C)nc(C(C)(F)F)n1)OC (stereo not shown) = 10 to 100 nM
• COc1cc(-c2cnc(NC(C)=O)cc2Nc2ccnc(C(C)(F)F)n2)ncc1F = ≥ 1000 nM
• COc1cc(Nc2cc(NC(C)=O)ncc2-c2ncc(F)cn2)nc(C(C)(F)F)c1 = 10 to 100 nM
• CC(=O)Nc1cc(Nc2cc(C(C)C)nc(C(C)(F)F)n2)c(O[C@H]2C[C@H](F)C2)cn1 = ≤ 10 nM
• CC(=O)Nc1cc(Nc2cc(C)nc(C(C)(F)F)n2)c(-n2cc(C#N)cn2)cn1 = 100 to 1000 nM

Lookup: Give IC50 for CC(=O)Nc1cc(Nc2cc(C)nc(C(C)(F)F)n2)c(OCCCC2CCCO2)cn1 (stereo not shown)
Found: 10 to 100 nM

Lookup: Give IC50 for COCCOc1cnc(NC(C)=O)cc1Nc1nccc(C(C)(F)F)n1
Found: 100 to 1000 nM

Lookup: Give IC50 for [2H]C([2H])([2H])C([2H])([2H])Oc1cnc(NC(C)=O)cc1Nc1cc(NC2CCC2)nc(C(C)(F)F)n1
Found: ≤ 10 nM

Lookup: Give IC50 for CC(=O)Nc1cc(Nc2cc(C)nc(C(C)(F)F)n2)c(OCC2CC23CCOC3)cn1 (stereo not shown)
Found: 10 to 100 nM

Lookup: Give IC50 for CCN1CCn2nc(-c3cnc(NC(C)=O)cc3Nc3cc(C)nc(C(C)(F)F)n3)cc2C1
Found: ≤ 10 nM

Lookup: Give IC50 for CC(=O)Nc1cc(Nc2cc(C)nc(C(C)(F)F)n2)c(OC[C@H]2C[C@H](F)C2)cn1
Found: 10 to 100 nM
